Entries and their viability at 75 µM values follow.
# System: B164A5 murine melanoma cells
# procedure.details: MTT cell viability assay on B164A5
# condition: Mus musculus, B16-4A5, 72 h, read-out: cell viability (growth percentage), 75 µM, 72 h, MTT
measured.endpoint: viability at 75 µM (%)

[
  {
    "compound": "C=C(C)C1CCC2(C(=O)O)CCC3(C)C(CCC4C5(C)Cc6c([nH]c7ccccc67)C(C)(C)C5CCC43C)C12 (stereo not shown) [BA4, 2,3-indolo-betulinic acid]",
    "measured.endpoint": "viability at 75 µM",
    "readout.value": 15
  },
  {
    "compound": "C=C(C)[C@@H]1CC[C@]2(C(=O)NCC(=O)O)CC[C@]3(C)[C@H](CC[C@@H]4[C@@]5(C)Cc6c([nH]c7ccccc67)C(C)(C)[C@@H]5CC[C@]43C)[C@@H]12 [BA3, N-(2,3-indolo-betulinoyl)glycine]",
    "measured.endpoint": "viability at 75 µM",
    "readout.value": -1.5
  },
  {
    "compound": "C=C(C)[C@@H]1CC[C@]2(C(=O)O)CC[C@]3(C)[C@H](CC[C@@H]4[C@@]5(C)CC[C@H](O)C(C)(C)[C@@H]5CC[C@]43C)[C@@H]12 [BI, Betulinic acid]",
    "measured.endpoint": "viability at 75 µM",
    "readout.value": 9.6
  },
  {
    "compound": "C=C(C)[C@@H]1CC[C@]2(C(=O)NCC(=O)NCC(=O)NCC(=O)O)CC[C@]3(C)[C@H](CC[C@@H]4[C@@]5(C)Cc6c([nH]c7ccccc67)C(C)(C)[C@@H]5CC[C@]43C)[C@@H]12 [BA1, N-(2,3-indolo-betulinoyl)diglycylglycine]",
    "measured.endpoint": "viability at 75 µM",
    "readout.value": 5.7
  }
]
